Tested on: A2780
assay.procedure: Antiproliferative activity against human A2780 cells assessed as maximal growth inhibition at […] after 72 hrs by CellTiter 96 Non-Rad cell proliferation assay kit method
Type: functional
Consider the reported Efficacy of an entry and match it to a band in class 0 (below 50%), class 1 (50% to below 60%), class 2 (60% or more)

>>> label_value("CC(=O)c1ccc(NC(=O)Nc2ccc3c(c2)C(C)(C)CC(C)(C)S3)cc1")
"class 2"
>>> label_value("CC1(C)CC(C)(C)c2cc(NC(=S)Nc3ccc4c(c3)C(C)(C)CC(C)(C)S4)ccc2S1")
"class 1"
>>> label_value("COc1ccc(NC(=S)Nc2ccc3c(c2)C(C)(C)CC(C)(C)S3)cc1O")
"class 1"
>>> label_value("CC1(C)CC(C)(C)c2cc(NC(=S)Nc3ccc4c(c3)CCCC4)ccc2S1")
"class 2"
>>> label_value("CC1(C)CC(C)(C)c2cc(NC(=S)Nc3ccccc3C(F)(F)F)ccc2S1")
"class 0"
>>> label_value("CC1(C)CCSc2ccc(NC(=S)Nc3ccc(OC(F)(F)F)cc3)cc21")
"class 2"
>>> label_value("CC1(C)CC(C)(C)c2cc(NC(=S)NCc3ccc(F)cc3)ccc2S1")
"class 2"

Note: place this compound into its band. Item: CCOC(=O)c1ccc(NC(=S)Nc2ccc3c(c2)C(C)(C)CCS3)cc1 class 0

* * *

assay.procedure: Toxicity in dog assessed as adverse effect level
Design: species or system Canis lupus familiaris
assay.conditions: in vivo
value.type: NOAEL

Can you share its NOAEL? I mean this molecule: CC1(C)CC(C)(C)c2cc(NC(=S)Nc3ccc([N+](=O)[O-])cc3)ccc2S1 > 1500 mg/kg/day

* * *

System: A2780
assay.procedure: Antiproliferative activity against human A2780 cells assessed as maximal growth inhibition at […] after 72 hrs by CellTiter 96 Non-Rad cell proliferation assay kit method
Assay type: functional
value.type: Efficacy (%)
Give bare numbers, in %.

>>> test_value("CC1(C)CC(C)(C)c2cc(NC(=S)Nc3ccc(O)cc3)ccc2S1")
64

Give Efficacy for each of the items listed below.
1. COc1cc([N+](=O)[O-])ccc1NC(=O)Nc1ccc2c(c1)C(C)(C)CC(C)(C)S2
2. Cc1ccc(CNC(=S)Nc2ccc3c(c2)C(C)(C)CC(C)(C)S3)cc1
3. CC1(C)CC(C)(C)c2cc(NC(=S)Nc3ccccc3)ccc2S1
4. CC1(C)CC(C)(C)c2cc(NC(=S)Nc3cccc([N+](=O)[O-])c3)ccc2S1

1. 73.1
2. 90.1
3. 37.5
4. 60.8
